System: SNB-75 CNS
test protocol: NCI-60 one-dose screen, 48 h (100 = growth as untreated, 0 = no growth, -100 = all killed)
condition: 10 µM unless noted
The panel holds about 83,000 compounds, 20% with a hit somewhere; the sample as a whole holds those more often.
attribute measured: growth (%)

- N#CC1=C(N)Oc2nc[nH]c(=O)c2C1c1cccs1 (stereo not given): 92.6
- O=C1c2ccccc2C(=O)c2c1oc1ccc3ccccc3c21: 93.3
- COc1cc(C)cc2oc3oc(=O)c(-c4csc(-c5cc6ccccc6oc5=O)n4)cc3c(=O)c12: 113
- Cc1ccc(NC(=O)Cn2nncc2CN2C(=O)CSC2=O)cc1C: 93.3
- CCSc1ccc([C@@H]2[C@@H](O)C(=O)N2c2cc(OC)c(OC)c(OC)c2)cc1: 85.8
